Values compiled from paper PMC7662321.

PROTOCOL NOTES: MTT cytotoxicity assay in A549 cells
Format: cell-based
CONDITION DESCRIPTION: human, A549 cells (human lung carcinoma), 24 h post-treatment
For each entry below, report its CC50 at 24 h value.
Give just the numeric value; µM need not be written.

**Query** Look up CC50 at 24 h of C=C1CC[C@@H]2[C@](C)(COC(C)=O)[C@H](O)CC[C@@]2(C)[C@@H]1C/C=C1/C(=O)OC[C@H]1Oc1ccc([N+](=O)[O-])cc1OC [ZAD-3] and report it.
**Result** 190

**Query** Look up CC50 at 24 h of C=C1CC[C@@H]2[C@](C)(CO)[C@H](O)CC[C@@]2(C)[C@@H]1C/C=C1/C(=O)OC[C@H]1O [Andrographolide] and report it.
**Result** 211

**Query** Look up CC50 at 24 h of C=C1CC[C@@H]2[C@]3(C)COC(C)(C)O[C@@H]3CC[C@@]2(C)[C@@H]1C/C=C1/C(=O)OC[C@@H]1Oc1c(Cl)cc(Cl)c2ccc(C)nc12 [ZAD-1] and report it.
**Result** 273

**Query** Look up CC50 at 24 h of C=C1CC[C@@H]2[C@](C)(CO)[C@H](O)CC[C@@]2(C)[C@@H]1C/C=C1/C(=O)OC[C@@H]1Oc1ccc([N+](=O)[O-])cc1OC [ZAD-2] and report it.
**Result** 194

----------
PROTOCOL NOTES: MTT cytotoxicity assay in Vero cells
Format: cell-based
CONDITION DESCRIPTION: African green monkey, Vero cells (monkey kidney), 24 h post-treatment
REPORTED PROPERTY: CC50 at 24 h (µM)
Give just the numeric value; µM need not be written.

**Query** Look up CC50 at 24 h of C=C1CC[C@@H]2[C@](C)(CO)[C@H](O)CC[C@@]2(C)[C@@H]1C/C=C1/C(=O)OC[C@@H]1Oc1ccc([N+](=O)[O-])cc1OC and report it.
**Result** 179

**Query** Look up CC50 at 24 h of C=C1CC[C@@H]2[C@](C)(COC(C)=O)[C@H](O)CC[C@@]2(C)[C@@H]1C/C=C1/C(=O)OC[C@H]1Oc1ccc([N+](=O)[O-])cc1OC and report it.
**Result** 186

**Query** Look up CC50 at 24 h of C=C1CC[C@@H]2[C@]3(C)COC(C)(C)O[C@@H]3CC[C@@]2(C)[C@@H]1C/C=C1/C(=O)OC[C@@H]1Oc1c(Cl)cc(Cl)c2ccc(C)nc12 and report it.
**Result** 510

**Query** Look up CC50 at 24 h of C=C1CC[C@@H]2[C@](C)(CO)[C@H](O)CC[C@@]2(C)[C@@H]1C/C=C1/C(=O)OC[C@H]1O [Andrographolide] and report it.
**Result** 469

----------
PROTOCOL NOTES: MTT cytotoxicity assay in BHK-21 cells
Format: cell-based
CONDITION DESCRIPTION: hamster, BHK-21 cells (baby hamster kidney), 24 h post-treatment
For each entry below, report its CC50 at 24 h value.
Give just the numeric value; µM need not be written.

**Query** Look up CC50 at 24 h of C=C1CC[C@@H]2[C@](C)(CO)[C@H](O)CC[C@@]2(C)[C@@H]1C/C=C1/C(=O)OC[C@H]1O [Andrographolide] and report it.
**Result** 600

**Query** Look up CC50 at 24 h of C=C1CC[C@@H]2[C@]3(C)COC(C)(C)O[C@@H]3CC[C@@]2(C)[C@@H]1C/C=C1/C(=O)OC[C@@H]1Oc1c(Cl)cc(Cl)c2ccc(C)nc12 and report it.
**Result** 136

**Query** Look up CC50 at 24 h of C=C1CC[C@@H]2[C@](C)(CO)[C@H](O)CC[C@@]2(C)[C@@H]1C/C=C1/C(=O)OC[C@@H]1Oc1ccc([N+](=O)[O-])cc1OC and report it.
**Result** 218

**Query** Look up CC50 at 24 h of C=C1CC[C@@H]2[C@](C)(COC(C)=O)[C@H](O)CC[C@@]2(C)[C@@H]1C/C=C1/C(=O)OC[C@H]1Oc1ccc([N+](=O)[O-])cc1OC and report it.
**Result** 175
